What follows is a collection of Ki values obtained with Amine oxidase [flavin-containing] B (Rattus norvegicus, UniProt P19643).
Sequence (P19643 whole entry): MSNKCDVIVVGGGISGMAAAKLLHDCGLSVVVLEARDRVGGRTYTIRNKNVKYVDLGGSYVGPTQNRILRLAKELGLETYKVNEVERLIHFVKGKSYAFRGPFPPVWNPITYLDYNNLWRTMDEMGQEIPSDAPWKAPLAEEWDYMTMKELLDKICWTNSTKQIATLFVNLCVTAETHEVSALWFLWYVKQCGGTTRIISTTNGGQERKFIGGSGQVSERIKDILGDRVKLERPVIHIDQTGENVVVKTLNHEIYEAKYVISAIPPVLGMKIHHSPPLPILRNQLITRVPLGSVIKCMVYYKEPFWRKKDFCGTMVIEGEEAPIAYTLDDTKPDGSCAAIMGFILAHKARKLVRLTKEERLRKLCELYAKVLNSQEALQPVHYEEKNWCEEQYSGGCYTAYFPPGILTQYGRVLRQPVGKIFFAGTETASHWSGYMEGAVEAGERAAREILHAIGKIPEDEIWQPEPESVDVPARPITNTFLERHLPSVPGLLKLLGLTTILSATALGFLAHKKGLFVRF
METRIC_NAME: Ki (µM)

# annotated cases, reported Ki shown
# input What value of Ki has been reported for the following molecule? COc1ccccc1NC(=S)N1N=C(c2ccc(O)cc2)CC1c1cccs1 (configuration not stated)
# output 44

# input Try this molecule too: Cc1cccc(NC(=S)N2N=C(c3ccc(O)cc3)CC2c2cccs2)c1 (configuration not stated)
# output 2210

# input Try this molecule too: COc1ccc(NC(=S)N2N=C(c3ccc(O)cc3)CC2c2cccs2)cc1 (configuration not stated)
# output 7150

# input Try this molecule too: COc1cccc(NC(=S)N2N=C(c3ccc(O)cc3)CC2c2cccs2)c1 (configuration not stated)
# output 1100

# input Try this molecule too: COc1cccc(NC(=S)N2N=C(c3ccc(O)cc3)CC2c2ccco2)c1 (configuration not stated)
# output 460

(I) Cc1ccc(NC(=S)N2N=C(c3ccc(O)cc3)CC2c2ccco2)cc1 (configuration not stated)
(II) Cc1ccc(NC(=S)N2N=C(c3ccc(O)cc3)CC2c2cccs2)cc1 (configuration not stated)
# input Parameter metric = Ki. Return the lower-valued option from I and II . Which one? Tell me its label.
# output II
